Ki tested on SERT (Homo sapiens, UniProt P31645): recorded values
Sequence (P31645 whole entry, species assumed): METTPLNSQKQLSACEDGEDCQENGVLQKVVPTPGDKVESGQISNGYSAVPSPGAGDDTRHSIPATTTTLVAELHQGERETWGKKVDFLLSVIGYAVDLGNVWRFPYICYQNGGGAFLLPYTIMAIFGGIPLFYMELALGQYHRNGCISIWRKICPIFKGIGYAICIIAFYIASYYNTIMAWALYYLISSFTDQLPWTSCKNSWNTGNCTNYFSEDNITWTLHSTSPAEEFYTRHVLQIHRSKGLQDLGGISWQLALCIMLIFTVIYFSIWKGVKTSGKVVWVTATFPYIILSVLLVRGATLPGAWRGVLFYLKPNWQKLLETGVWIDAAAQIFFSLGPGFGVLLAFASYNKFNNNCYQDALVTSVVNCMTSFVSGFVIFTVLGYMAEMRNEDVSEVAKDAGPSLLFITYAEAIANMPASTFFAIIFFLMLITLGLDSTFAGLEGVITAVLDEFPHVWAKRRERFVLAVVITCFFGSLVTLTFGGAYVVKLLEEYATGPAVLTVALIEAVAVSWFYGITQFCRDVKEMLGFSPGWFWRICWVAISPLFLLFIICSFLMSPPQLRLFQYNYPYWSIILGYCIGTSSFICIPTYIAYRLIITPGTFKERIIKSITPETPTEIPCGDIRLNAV

input_smiles: COc1ccccc1N1CCN(CCCN/C(=N\C#N)c2ccccn2)CC1
measured_on: SERT (Homo sapiens, UniProt P31645)
Ki: > 10 µM

IN: # return Ki for COc1ccccc1N1CCN(CCNC(=O)c2ccccn2)CC1 , test system: SERT (Homo sapiens, UniProt P31645)
OUT: > 10 µM

----------
Ki for assorted molecules
target: Beta Receptors; assay: NIMH-PDSP radioligand binding assay, Beta Receptors

input_smiles: COc1ccccc1N1CCN(CCNC(=O)c2ccccn2)CC1
measured_on: Beta Receptors
Ki: > 10 µM

// moving on: another record for Ki
IN: Answer with the recorded Ki for the molecule listed here: COc1ccccc1N1CCN(CCCN/C(=N\C#N)c2ccccn2)CC1
OUT: > 10 µM

----------
Molecular target: Alpha1A (Homo sapiens)
Sequence (P35348 1-466): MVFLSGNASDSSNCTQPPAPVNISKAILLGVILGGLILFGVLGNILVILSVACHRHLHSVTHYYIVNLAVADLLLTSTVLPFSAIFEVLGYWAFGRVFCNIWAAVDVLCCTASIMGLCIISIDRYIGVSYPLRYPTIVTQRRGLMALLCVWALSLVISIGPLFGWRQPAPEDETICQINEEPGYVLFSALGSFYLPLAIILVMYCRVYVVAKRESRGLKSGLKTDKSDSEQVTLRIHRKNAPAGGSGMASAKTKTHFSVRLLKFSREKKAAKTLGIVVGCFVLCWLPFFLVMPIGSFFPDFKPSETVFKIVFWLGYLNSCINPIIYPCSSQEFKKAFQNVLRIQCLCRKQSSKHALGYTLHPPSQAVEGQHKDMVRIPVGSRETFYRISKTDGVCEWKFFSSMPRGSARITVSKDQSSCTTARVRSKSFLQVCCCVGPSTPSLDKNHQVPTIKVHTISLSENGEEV
property_measured: pKi
pKi is defined as minus the log10 of a concentration measured in mol/L.

molecule: COc1ccccc1N1CCN(CCNC(=O)c2ccccn2)CC1 [Compound 2]
pKi: 7.34

// moving on: another record for pKi
IN: Answer with the recorded pKi for the molecule listed here: COc1ccccc1N1CCN(CCCN/C(=N\C#N)c2ccccn2)CC1 [Compound 1]
OUT: 6.89

----------
Sequence of the target: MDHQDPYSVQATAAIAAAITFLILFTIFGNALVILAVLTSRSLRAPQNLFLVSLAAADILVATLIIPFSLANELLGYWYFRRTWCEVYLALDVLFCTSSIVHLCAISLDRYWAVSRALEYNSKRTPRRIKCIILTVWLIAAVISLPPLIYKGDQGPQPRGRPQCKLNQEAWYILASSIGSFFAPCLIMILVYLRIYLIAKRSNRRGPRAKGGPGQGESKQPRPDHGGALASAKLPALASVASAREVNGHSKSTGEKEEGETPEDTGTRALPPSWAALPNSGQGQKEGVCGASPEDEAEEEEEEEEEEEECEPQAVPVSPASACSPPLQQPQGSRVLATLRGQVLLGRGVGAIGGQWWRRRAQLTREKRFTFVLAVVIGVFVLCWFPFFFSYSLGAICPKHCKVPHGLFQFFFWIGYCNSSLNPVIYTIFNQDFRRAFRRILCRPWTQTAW
property_measured: Ki (µM)
Unit µM implied. Number only.

IN: Answer with the recorded Ki for the compound listed here: COc1ccccc1N1CCN(CCCN/C(=N\C#N)c2ccccn2)CC1 [Compound 1]
OUT: 0.67

----------
molecular target: D1, D5; test: NIMH-PDSP radioligand binding assay, D1, D5
property_measured: Ki

compound: COc1ccccc1N1CCN(CCCN/C(=N\C#N)c2ccccn2)CC1 [Compound 1]
Ki: > 10 µM

// moving on: another record for Ki
IN: # return Ki for COc1ccccc1N1CCN(CCNC(=O)c2ccccn2)CC1 [Compound 2] , test system: D1, D5
OUT: > 10 µM

----------
Ki for assorted compounds
target: UniProt P50406
Sequence (P50406 whole entry, species assumed): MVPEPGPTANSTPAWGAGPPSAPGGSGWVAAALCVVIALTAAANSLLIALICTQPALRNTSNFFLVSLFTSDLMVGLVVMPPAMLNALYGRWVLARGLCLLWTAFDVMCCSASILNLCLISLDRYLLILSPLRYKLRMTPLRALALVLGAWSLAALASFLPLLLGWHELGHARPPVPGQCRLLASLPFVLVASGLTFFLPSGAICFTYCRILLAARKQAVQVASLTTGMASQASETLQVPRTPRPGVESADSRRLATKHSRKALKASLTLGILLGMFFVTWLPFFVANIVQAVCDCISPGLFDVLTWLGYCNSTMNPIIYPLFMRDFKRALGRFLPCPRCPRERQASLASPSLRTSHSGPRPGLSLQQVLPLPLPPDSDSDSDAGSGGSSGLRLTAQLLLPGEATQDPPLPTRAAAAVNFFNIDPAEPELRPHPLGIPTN

input_smiles: COc1ccccc1N1CCN(CCCN/C(=N\C#N)c2ccccn2)CC1
measured_on: UniProt P50406
Ki: > 10 µM

// moving on: another record for Ki
IN: # return Ki for COc1ccccc1N1CCN(CCNC(=O)c2ccccn2)CC1 , test system: UniProt P50406
OUT: > 10 µM
